Where these numbers come from: paper PMC2803041

Target: His-PYR1 with GST-ABI1 (Arabidopsis thaliana, UniProt O49686)
Sequence (O49686 1-191): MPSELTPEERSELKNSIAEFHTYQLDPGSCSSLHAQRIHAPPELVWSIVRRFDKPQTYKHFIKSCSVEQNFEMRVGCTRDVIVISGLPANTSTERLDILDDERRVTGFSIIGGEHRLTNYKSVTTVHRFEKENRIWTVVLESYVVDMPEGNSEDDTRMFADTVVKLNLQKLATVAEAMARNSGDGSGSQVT
Sequence (P49597 1-434 partner): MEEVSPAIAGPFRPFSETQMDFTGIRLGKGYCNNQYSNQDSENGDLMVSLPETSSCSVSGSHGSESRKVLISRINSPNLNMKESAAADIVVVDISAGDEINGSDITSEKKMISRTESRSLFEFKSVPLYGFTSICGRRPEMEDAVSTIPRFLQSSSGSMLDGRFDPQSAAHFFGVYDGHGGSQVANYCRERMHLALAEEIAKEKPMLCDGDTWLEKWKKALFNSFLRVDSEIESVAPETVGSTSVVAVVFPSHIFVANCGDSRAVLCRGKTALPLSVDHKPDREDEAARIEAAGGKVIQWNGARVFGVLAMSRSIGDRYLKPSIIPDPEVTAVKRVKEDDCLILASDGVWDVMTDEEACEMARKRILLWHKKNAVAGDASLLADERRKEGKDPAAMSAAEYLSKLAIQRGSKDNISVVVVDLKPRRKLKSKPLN
Test: in vitro reconstitution, radiometric kinase assay
Measured parameter: pEC50
Please note pEC50 is a logarithmic value: minus log10 of concentration in mol/L. Answer with that number alone.

Exercise: Fill in the blank: the reported pEC50 of CC1=CC(=O)CC(C)(C)C1(O)/C=C/C(C)=C\C(=O)O (stereo in doubt) [(+)-ABA] is ____.
Key: 6.10
